Alpha 2C IA (intrinsic activity) listing for selected compounds.
target: alpha2C receptor (Homo sapiens); construct: expressed in transfected cells; host or cells: NIH-3T3; assay: Receptor Selection and Amplification Technology (RSAT) assay, alpha2C; format: cell-based; settings: ratio of maximal effect of the drug to maximal effect of standard full agonist brimonidine (UK14304)
Sequence (P18825 whole entry): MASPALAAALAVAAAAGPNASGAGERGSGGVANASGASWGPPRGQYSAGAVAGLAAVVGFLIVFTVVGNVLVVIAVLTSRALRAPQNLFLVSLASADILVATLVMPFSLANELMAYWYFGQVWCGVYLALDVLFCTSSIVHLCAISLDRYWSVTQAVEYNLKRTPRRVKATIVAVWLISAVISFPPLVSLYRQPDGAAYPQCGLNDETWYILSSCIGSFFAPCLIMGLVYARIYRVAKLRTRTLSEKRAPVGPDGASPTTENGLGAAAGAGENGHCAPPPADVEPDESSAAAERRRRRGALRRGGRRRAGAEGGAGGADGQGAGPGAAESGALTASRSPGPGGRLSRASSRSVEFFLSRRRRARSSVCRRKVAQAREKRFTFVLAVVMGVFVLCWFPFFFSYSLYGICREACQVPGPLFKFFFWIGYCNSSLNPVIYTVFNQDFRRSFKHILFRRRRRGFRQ
Reported metric: Alpha 2C IA (intrinsic activity)

> print(dat)
                                    compound   val
 1  O=C(NCCF)NC1C=C(CO)CCC1 (centres unmarked)   0.4
 2              O=C(NCCF)N[C@@H]1CCc2ccccc21  0.61
 3  CC1=C(C=O)CCCC1NC(=O)NCCF (centres unmarked)  0.32
 4  O=C(NCCF)NC1CCc2c(Br)cccc21 (centres unmarked)   0.7
 5  O=C(NCCF)NC1CCc2c(OC(=O)c3ccccc3)cccc21 (centres unmarked)  0.73
 6  Cc1cccc2c1CCCC2NC(=O)NCCF (centres unmarked)  1.03
 7  CC1=CC(NC(=O)NCCF)CCC1 (centres unmarked)   0.4
 8  O=C(NCCF)NC1CCc2cccc(Cl)c21 (centres unmarked)  0.78
 9  O=C(NCCF)NC1CCCc2c(F)cccc21 (centres unmarked)  0.76
10  O=C(NCCF)NC1CCc2ccccc21 (centres unmarked)  0.64
11  O=C(NCCF)NC1Cc2cccc(Cl)c2C1 (centres unmarked)  0.44
12  CCC1=CC(NC(=O)NCCF)CCC1 (centres unmarked)  0.32
13  O=C(NCCF)NC1CCc2ccc(Cl)cc21 (centres unmarked)   0.7
14  O=C(NCCF)NC1CCc2c(O)cccc21 (centres unmarked)  0.73
15  CCC1=CCCCC1NC(=O)NCCF (centres unmarked)  0.59
16  O=C(NCCF)NC1CCCc2c(Br)cccc21 (centres unmarked)  0.53
17  O=C(NCCF)NC1CCc2cc(F)ccc21 (centres unmarked)  0.54
18  Nc1cccc2c1CCC2NC(=O)NCCF (centres unmarked)  0.54
19  O=C(NCCF)NC1CCc2ccc(F)cc21 (centres unmarked)  0.47
20  O=C(NCCF)NC1CCCCc2ccc(F)cc21 (centres unmarked)   0.3
21  Cc1cccc2c1C(NC(=O)NCCF)CC2 (centres unmarked)  0.62
22                   O=C(NCCF)NC1Cc2ccccc2C1  0.48
23  O=C(NCCF)NC1CCc2c(Cl)cccc21 (centres unmarked)   1.1
